- Tested on: MDA-MB-468 breast
- Assay Protocol: NCI tumour cell line growth inhibition, 48 h
Assay Readout: TGI (nM)
The reply should contain only the number, in nM.

Here are 3 compounds together with their reported answers.
C1=C2CCCC3=Cc4ccccc4OC23Oc2ccccc21 ... 69100
Cc1ccc(S(=O)(=O)c2nc(-c3ccccc3)oc2S(C)=O)cc1 (stereo not given) ... 2150
CCN=C1C=CC(=C(c2ccc(N(CC)CC)cc2)c2ccc(N(CC)CC)cc2)c2ccccc21 ... 228

For the next question, use this compound.
// query TGI value for entry c1ccc2c(-c3nc(-c4c[nH]c5ccncc45)cs3)c[nH]c2c1 1510

Cited source for all entries: PubChem BioAssay (NCI)
